Measured pest or weed control at 5 g/ha of individual entries
# Test system: Veronica persica (VERPE)
# procedure-details: Post-emergence herbicidal action, greenhouse pot test
# Type: in vivo
# measurement-conditions: Veronica persica, 504 h, 5 g/ha, read-out: Post-emergence action against VERPE
assay-metric: pest or weed control at 5 g/ha (%)

molecular-string | data-value
Cn1c(C(F)(F)F)cc(=O)n(-c2cc(Oc3ccccc3OCC(=O)OCC#N)c([N+](=O)[O-])cc2F)c1=O | 90
Cn1c(C(F)(F)F)cc(=O)n(-c2cc(Oc3ccccc3OCC(=O)OCC#N)c(Cl)cc2F)c1=O | 100
COCCOC(=O)COc1ccccc1Oc1cc(-n2c(=O)cc(C(F)(F)F)n(C)c2=O)c(F)cc1[N+](=O)[O-] | 100
Cn1c(C(F)(F)F)cc(=O)n(-c2cc(Oc3ccccc3OCC(=O)OCC#N)c(C#N)cc2F)c1=O | 100

Source listed as patent US20240025862A1.
